experimental-protocol: soluble fraction after stress (log2 fold change); higher = more stays soluble; pooled small domains, quantitative proteomics
condition-parameters: stress: 50 degC
Class (by soluble fraction (log2)) -- range 1 = under -0.3, range 2 = from -0.3 up to 0.06, range 3 = 0.06 and over

For this sequence, which bin applies? `HMNRIFQERVVPAELDTLRADKVAASLFSDFSRNELAHWIKMGDLSINGGVKKAKDKLFEGDVLILDVEIV`
range 1

Textbook exercise: identify the category of the sequence given here, `HMQLGEEAGDELVAIVRSVINDNDKALADYLAGKSSALKFLLGQVMRQTKGRADHALVQSLLEAELEAL` , according to its measured value.
range 2

GET /class?item= `HMDYKAELDNIIRDHLDMEGPLLPVLHAVMARFSYIPKDAIPIIARKLNLSSAEVSGVISFYHDFKKEK`
range 1

Could you place `HMQLPTNAAAILRYLSSGAVKGVGSATAVRIVEKFGEETLNILEQDPLRLAEIRGISRDKAKKIGEDFASQ` in its proper category? Many thanks.
range 2

Band for `HMQKDYKTRLQEYYAKVGKKVNYMDSSTGPDHDKKFQTQVFLDKEIIGVGEGKSKKSSQQEAAKQALEKI` ?
range 3

New cases:
Category lookup for the sequence `HMSGILINGELYKPGEQMSLKQRLSIQARIQMQGEDTVKPEMLKDFYNSGGPLSKEESSEYMKSQN`
range 2

For this sequence, which bin applies? `HMGSNATIKYAIKGDESLVQVAQKFNVTVSELRSWNNISAFENAKTGQELVINVPASKYETYFALANT`
range 3

Please classify: `HMGDPEYFKKQLGDFMDRFNITSEDIKNLSIAGAINRMMNNAEGEDKTVLSKLLETVNKSGVGNLPAKTI`
range 3

Hi there! Could you help me figure out the category for `HMRIFDDNMIFPTEAEISAALKRLVMDLPKVGFLQGHGERAVDNVGERAYSMFTHANNFRYALINQGFVT` please?
range 2

Which soluble fraction (log2) category applies to `HMERPPHELLSDREYQTMVMIASGRTLTQIAEEMSLSPKTVSVYRARLLEKMKLKNNAELTHYALKHKLV` here?
range 2

Class label required: `HMQQVIQSGQKVQLMATDGSFQVSAEGVALKNGSVGEVIGVRMPSGRVISGVVSASGAVEVR`
range 3

Could you tell me which band `HMFPDLTGDELRIVDLLNTANDLQVNIITAKTNLPISRVTSLLFQLEMKGVVKPLAGGMYHLLG` belongs to?
range 1

# bin lookup: classify `HMGSALLEAGADDAGQRLDQWLAAKLGPSISRSRVQALIKQGAVLVGGKPAGEAKRKLVAGDVVSVALPEP` by its soluble fraction (log2)
range 3

Category of `HMRKLHFVMSEIYEDHPWIGSKLQDVFLPKDIRVVLVERDSKQFMPNGQTLFELGDRLTLSALHYDPA` , please.
range 1

State the band of `HMENAEALLKKLSGVLSDYEYKMLMLYADGKTPRRIAQETGQSAKSVSNALFRARTKLKELYEDQ`
range 1

Field: class (soluble fraction (log2)) — entry: `HMIQIQDIAFSEFLQELDKGNIVEVNIKGDLINGDLINGKKFKTVAPYDPNLVEKLSKQNVRINVEPIN`
range 3

* * *

Provide the reported soluble fraction (log2) of each item.
experimental-protocol: soluble fraction after stress (log2 fold change); higher = more stays soluble; pooled small domains, quantitative proteomics
condition-parameters: stress: 50 degC
One number for each entry.

Answered cases to consult:
Give a short answer stating reported soluble fraction (log2) for `HMNMPHEIDANFISSLGRLIDNHGKNYGDFQIFREMFLDYFPRFDELSSNNKEKINRRLYKFFETLFG` .
-1.71

Using the record for `HMKKLTNKQIIFFAEKLAHHSDFASKYSKVGESYEEFAIRLEKELNTPQKVEFYSSYLEKVGFK` , state its measured soluble fraction (log2).
-2.14

Please report soluble fraction (log2) for the following sequence: `HMADLIIMSSDATEKQVDKVINKIKNMGFNVNISKGTEKTIIGIIGDTRGISDEVFKIMPGVIEVISILRD`
-0.39

# return recorded soluble fraction (log2) for input `HMDVLSQYGSRGEEVGKIQTRLKSWGYFSGEVTGYYGSQTTEAVKRFQQKHGLSATGVADRKTLELIGIS`
-0.108

Report soluble fraction (log2) for `HMSEPQYKVLFSNLDDRDGGAIVTALGAMNVPYKYNDTGTALLVPADRVYDARLQLASQGLPRG`
0.18

# batch: return soluble fraction (log2) for each of the 4 sequences below
1. HMKSEIRKKNSQIILDAAEHEFSVHGYRGTSVQMIADRSGLPKANLHYYYKSKSALYGAVLDRIL
2. HMSLQNTMANFAGGVLVLFLKPFKAGDYIVTKDGEGTVASIGLVYTTLLTIENKRIVIPNSSISNSPITN
3. HMGENTIFSGVLGEGRLDSALAHALPQFSRARIQGLIAEDAVLIAGKATNDAASKKFAGQSFELSVPAPRP
4. HMQRDERYVYHTVLAGETIYSLSRKFNVTMDELLESNPALRSGVLTTGSEIRVLKAQMAQNFD

1. 0.202
2. 0.0055
3. 0.105
4. -0.376

Measured values drawn from the domain aggregation screens of Martell et al. (2025) for this set.
